All figures here come from ChEMBL document CHEMBL4513216.

experiment: Toxicity liver stage against HepG2, at 10uM; format: cell-based; design: test concentration 10 uM, cell line HepG2-A16-CD81EGFP; settings: human, HepG2-A16-CD81EGFP cells; read-out: INHIBITION

- Compound: "Cc1occc1C(=O)NCC(O)c1ccc(Cl)s1 (configuration not stated)"
  cytotoxicity at 10 µM / %: -16.4
- Compound: "COCC1N(C(=O)c2ccco2)C2CCC1(O)CC2 (configuration not stated)"
  cytotoxicity at 10 µM / %: 1.4
- Compound: "OCCN1CCOC2(CCCN(c3ncccn3)C2)C1 (configuration not stated)"
  cytotoxicity at 10 µM / %: 9.55
- Compound: "COC(C)(C)CNC(=O)c1cn(-c2cccc(Cl)c2F)nn1"
  cytotoxicity at 10 µM / %: 8.83
- Compound: "COc1ccc(C(=O)N2CCN(C(=O)Cn3nccc3C)CC2)cc1"
  cytotoxicity at 10 µM / %: 6.88
- Compound: "Cc1nc(C)n(CC2CCCN2Cc2ccccn2)n1 (configuration not stated)"
  cytotoxicity at 10 µM / %: -0.186
- Compound: "N#CC1(NC(=O)c2ccc(-c3nc(C4CC4)n[nH]3)cc2)CCSC1 (configuration not stated)"
  cytotoxicity at 10 µM / %: 4.39
- Compound: "COCCCNC(=O)CN(C)Cc1ccc(F)cc1Cl"
  cytotoxicity at 10 µM / %: -7.33
- Compound: "CNC(=O)NC(=O)CCN1CCN(c2nccs2)CC1"
  cytotoxicity at 10 µM / %: -11.1
- Compound: "c1cc(CN2CCC[C@@H](Cn3nnc(-c4cnccn4)n3)C2)ccn1"
  cytotoxicity at 10 µM / %: -0.45
- Compound: "COCCOc1ccccc1C(=O)N(C)Cc1ncc(C)c(OC)c1C"
  cytotoxicity at 10 µM / %: -1.61
- Compound: "COCCNC(=O)CN1CCCC1c1c(C)nn(C)c1Cl (configuration not stated)"
  cytotoxicity at 10 µM / %: -0.185

====

assay: Toxicity liver stage against HepG2, at 10uM; type: cell-based; parameters: test concentration 10 uM, cell line HepG2-A16-CD81EGFP; settings: human, HepG2-A16-CD81EGFP cells; read-out: INHIBITION

- Molecule: "CS(=O)(=O)N1C[C@H](C(=O)Nc2cccnc2)C[C@H]2OCC[C@H]21"
  cytotoxicity at 10 µM: "11.3%"
- Molecule: "CC(=O)N(C)c1nc(CN2CCN(c3nccs3)CC2)cs1"
  cytotoxicity at 10 µM: "-12.5%"
- Molecule: "Cc1noc(C2CCN(C(=O)c3cccs3)CC2)n1"
  cytotoxicity at 10 µM: "-1.22%"
- Molecule: "CN(C)C(CNC(=O)NCc1ccco1)c1cccs1 (stereo unspecified)"
  cytotoxicity at 10 µM: "-3.29%"
- Molecule: "O=C(Nc1ccc(F)cc1F)Nc1c[nH]c(=O)[nH]c1=O"
  cytotoxicity at 10 µM: "-3.55%"
- Molecule: "Cc1nc(C2CCCN(C(=O)c3ccnc(N(C)C)c3)C2)no1 (stereo unspecified)"
  cytotoxicity at 10 µM: "-4.77%"

====

assay: Toxicity liver stage against HepG2, at 10uM; assay type: cell-based; design: test concentration 10 uM, cell line HepG2-A16-CD81EGFP; conditions: human, HepG2-A16-CD81EGFP cells; read-out: INHIBITION

- Compound: "CCc1nnc2n1CCN(C(=O)CCOc1cc(C)ccc1C)C2"
  Result unit: "%"
  cytotoxicity at 10 µM: -11.3
- Compound: "CN(C)C1CCCN(C(=O)NCCNC(=O)C2CCCC2)C1 (stereo not drawn)"
  Result unit: "%"
  cytotoxicity at 10 µM: -7.4
- Compound: "c1cnnc(N2CCCC2CNCc2ccsc2)c1 (stereo not drawn)"
  Result unit: "%"
  cytotoxicity at 10 µM: -8.9
- Compound: "Cc1nn(C)c(C)c1OCC(=O)NCC(O)c1ccco1 (stereo not drawn)"
  Result unit: "%"
  cytotoxicity at 10 µM: -4.71
- Compound: "CN(C)CCN(C)C(=O)c1ccccc1-n1cc(CN(C)C)cn1"
  Result unit: "%"
  cytotoxicity at 10 µM: -13.7
- Compound: "O=S(=O)(C1CC1)N1CCC(Cn2cccn2)CC1"
  Result unit: "%"
  cytotoxicity at 10 µM: -8.29
- Compound: "Cc1cccc(C)c1OCCNC(=O)C[S+]([O-])C1CCCC1 (stereo not drawn)"
  Result unit: "%"
  cytotoxicity at 10 µM: -136
- Compound: "NC(=O)C1(c2cnccn2)CCCN1Cc1cccc(Cl)c1 (stereo not drawn)"
  Result unit: "%"
  cytotoxicity at 10 µM: -2.5
- Compound: "COC(=O)N1CC2(CCNCC2)c2cc(Cl)ccc21"
  Result unit: "%"
  cytotoxicity at 10 µM: 7.71
- Compound: "NC(=O)c1ccc(OCCCN2CCC3(CC2)OCCCC3O)cc1 (stereo not drawn)"
  Result unit: "%"
  cytotoxicity at 10 µM: -1.18
- Compound: "CCn1cnnc1C1CCN(C(=O)c2cccc(OC)c2OC)CC1"
  Result unit: "%"
  cytotoxicity at 10 µM: -7.96
- Compound: "FC(F)(F)c1ccnc(N2CCCN(C3CCOCC3)CC2)c1"
  Result unit: "%"
  cytotoxicity at 10 µM: -7.49
- Compound: "Cc1nc(C2CCCN2CCCc2nc3ccccc3o2)no1 (stereo not drawn)"
  Result unit: "%"
  cytotoxicity at 10 µM: -9.24
- Compound: "Cc1cc(CN(C)C(=O)NC2CCCC2)no1"
  Result unit: "%"
  cytotoxicity at 10 µM: -5.85
- Compound: "CCN(CC)S(=O)(=O)NCCc1cc(C)ccc1OC"
  Result unit: "%"
  cytotoxicity at 10 µM: -2.64
- Compound: "CC(C)NC(=O)CN(C)CC(=O)Nc1ccnn1C(C)C1CC1 (stereo not drawn)"
  Result unit: "%"
  cytotoxicity at 10 µM: -6
- Compound: "CC(C)c1nnc2ccc(N3CCC(C(=O)Nc4nccs4)CC3)nn12"
  Result unit: "%"
  cytotoxicity at 10 µM: 42.6
- Compound: "Cc1noc(C)c1CN(C)C(=O)Nc1cnn(CC2CCCO2)c1 (stereo not drawn)"
  Result unit: "%"
  cytotoxicity at 10 µM: -2.77
- Compound: "COCCN1CCC2(CC1)CCN(Cc1ccccn1)CC2"
  Result unit: "%"
  cytotoxicity at 10 µM: -3.54
- Compound: "O=C(C1CCCO1)N1CCCn2c(nnc2Cn2cccc2)C1 (stereo not drawn)"
  Result unit: "%"
  cytotoxicity at 10 µM: 16.4
- Compound: "CCn1ncc2[nH]c(-c3ccc(OC)c(COC)c3)nc21"
  Result unit: "%"
  cytotoxicity at 10 µM: 6.34
- Compound: "CCn1c(CN2CCOC(Cn3cccn3)C2)nc2c(F)cccc21 (stereo not drawn)"
  Result unit: "%"
  cytotoxicity at 10 µM: -3.43
- Compound: "O=C(NCCN1CCOCC1)c1ccn(-c2ccc3ccccn23)n1"
  Result unit: "%"
  cytotoxicity at 10 µM: -0.735
- Compound: "CN(C)c1cc(C(=O)N2CCN(S(C)(=O)=O)CC2)ccn1"
  Result unit: "%"
  cytotoxicity at 10 µM: -4.46
- Compound: "COc1ccc(C[C@H]2CN(C(=O)c3ccc(C)nc3)CC[C@@H]2OC)cc1"
  Result unit: "%"
  cytotoxicity at 10 µM: 4.76
- Compound: "CC(C)c1nnc2n1CCN(C(=O)c1ccc(-n3cnnc3)cc1)C2"
  Result unit: "%"
  cytotoxicity at 10 µM: -11.5
- Compound: "O=C(NCc1cc[nH]n1)N1CCCCC(N2CCCC2)C1 (stereo not drawn)"
  Result unit: "%"
  cytotoxicity at 10 µM: -11.5
- Compound: "Cc1ccc(CS(=O)(=O)CC(=O)NCCCOC(C)C)cc1"
  Result unit: "%"
  cytotoxicity at 10 µM: -2.9
- Compound: "COCCNC(=O)c1cnc(N(C)C)nc1C"
  Result unit: "%"
  cytotoxicity at 10 µM: -5.33
- Compound: "Cc1ccc(C)c(C(=O)N2CCC3(CCC(=O)N(CC(N)=O)C3)CC2)c1"
  Result unit: "%"
  cytotoxicity at 10 µM: 17.7
- Compound: "Cn1cc(CN(CC2(O)CNCCOC2)C2CCCCC2)cn1 (stereo not drawn)"
  Result unit: "%"
  cytotoxicity at 10 µM: 3.09
- Compound: "Cc1cc(C[C@@H]2COC[C@@H]2NC(=O)CCN2Cc3ccccc3C2)on1"
  Result unit: "%"
  cytotoxicity at 10 µM: 3.86
- Compound: "Cc1ccc(C)c(CSc2nnc([C@@H](N)C(C)C)o2)c1"
  Result unit: "%"
  cytotoxicity at 10 µM: 5.95
- Compound: "Cc1cc(C)n(CCC(=O)N2CCC(c3nc(C(C)C)no3)CC2)n1"
  Result unit: "%"
  cytotoxicity at 10 µM: -16.1
- Compound: "CC(C)[C@@H]1CN(C(=O)c2ccc3c(c2)CCCO3)C[C@H]1NS(C)(=O)=O"
  Result unit: "%"
  cytotoxicity at 10 µM: -6.53
- Compound: "CNCC(=O)Nc1cccc(-c2cnc(NCCO)nc2)c1"
  Result unit: "%"
  cytotoxicity at 10 µM: -6.94
- Compound: "CC(C)CC(=O)NCC(O)c1c(F)cccc1F (stereo not drawn)"
  Result unit: "%"
  cytotoxicity at 10 µM: -2.24
- Compound: "Cc1cccc(CNC2CC(=O)N(CCc3cccc(Cl)c3)C2)n1 (stereo not drawn)"
  Result unit: "%"
  cytotoxicity at 10 µM: -134
- Compound: "CCC(=O)Nc1ccc(F)cc1OC"
  Result unit: "%"
  cytotoxicity at 10 µM: -26.1
- Compound: "CCn1cc(NC(=O)C2CCN(Cc3ccccc3C#N)CC2)cn1"
  Result unit: "%"
  cytotoxicity at 10 µM: 1.13
- Compound: "O=C(c1ccc(Cl)cc1)N1CCn2c(nn(-c3ccc(Cl)cc3)c2=O)C1"
  Result unit: "%"
  cytotoxicity at 10 µM: 10.9
- Compound: "CN(Cc1nccn1C)CC1CCOc2ccccc2C1 (stereo not drawn)"
  Result unit: "%"
  cytotoxicity at 10 µM: -2.77
- Compound: "COCCn1cc(C(=O)N2CCCC2c2noc(C)n2)ccc1=O (stereo not drawn)"
  Result unit: "%"
  cytotoxicity at 10 µM: -9.8
- Compound: "COCCOCC1(CNCc2ccc(F)cc2)C[C@@H](O)[C@@H](O)C1 (stereo partly drawn)"
  Result unit: "%"
  cytotoxicity at 10 µM: -3.1
- Compound: "O=C(c1cnccn1)N1CCN2C[C@H](Oc3cccc(F)c3)C[C@H]2C1"
  Result unit: "%"
  cytotoxicity at 10 µM: 11.7
- Compound: "Cc1cnn(CC(C)NCc2ccc(S(C)(=O)=O)cc2)c1 (stereo not drawn)"
  Result unit: "%"
  cytotoxicity at 10 µM: 4.62
- Compound: "Cc1cnn(CC2CCCN2C(=O)Cc2cccs2)c1 (stereo not drawn)"
  Result unit: "%"
  cytotoxicity at 10 µM: -0.704
- Compound: "Cc1nccn1C1(C(=O)O)CCN(Cc2ccc3nsnc3c2)CC1"
  Result unit: "%"
  cytotoxicity at 10 µM: -4.97
